// molecules with reported pIC50 on PIK3CG (human) (UniProt P48736), multi-publication
pIC50: −log10 of the molar value.

Examples from the recorded data:
molecule=Cn1ncc2c(-c3ccc4cc[nH]c4c3)nc(N3CCOCC3)nc21 measurement_target="PIK3CG (human) (UniProt P48736)" val="5.00 to 7.00"
molecule=Cn1cc(/C=C2\Oc3ccc(NC(=O)NCCCCl)cc3C2=O)c2c(N3CC4CCC(C3)O4)ccnc21 measurement_target="PIK3CG (human) (UniProt P48736)" val=5.66
molecule=C[C@H](Nc1ncnc2[nH]cnc12)c1cc2cccc(Cl)c2c(C(=O)N(C)c2ccccc2)n1 measurement_target="PIK3CG (human) (UniProt P48736)" val="> 5.00"
molecule=Cn1cc(-c2cc(N3CCOCC3)c3nc(C(=O)N4CCC5(CC4)COC5)[nH]c3n2)cn1 measurement_target="PIK3CG (human) (UniProt P48736)" val=6.19

Requested read-out: pIC50. Entry: CC(=O)Nc1nc(C)c(-c2ccc(Cl)c(S(=O)(=O)N[C@@H](C)C(=O)O)c2)s1
< 6.00

Requested read-out: pIC50. Entry: Cc1ccccc1-n1c(Cn2nc(-c3ccc4oc(N)nc4c3)c3c(N)ncnc32)cc2cccc(C)c2c1=O
> 7.00

Requested read-out: pIC50. Entry: Nc1nc2cc(-c3ccc4ncc(N5CC(N6CC7CCC(C6)O7)C5)nc4n3)ccc2o1
> 5.00

Requested read-out: pIC50. Entry: Cc1cccc2cc(Cn3nc(-c4ccc5oc(N)nc5c4)c4c(N)ncnc43)n(C3CC3)c(=O)c12
> 7.00

Requested read-out: pIC50. Entry: CC[C@H](Nc1ncnc2ccc(C#N)cc12)c1nc2cccc(-c3cnc(SC)nc3)c2c(=O)n1-c1ccccc1
5.76

Requested read-out: pIC50. Entry: Cc1csc2nc(C(C)Nc3nc(N)nc4[nH]cnc34)c(-c3cc(F)cc(F)c3)c(=O)n12 (single isomer, unassigned)
< 6.30

---

// compounds with reported IC50 on PIK3CG (human) (UniProt P48736), multi-publication
Decide using IC50 alone. Strictly below 300 nM: Condition met. Equal to or above 300 nM: Condition not met.

Regarding CC(Nc1ccc2c(c1)OCCn1cc(N3C(=O)OC(C)[C@H]3C(F)F)nc1-2)C(N)=O (stereo in doubt) , kindly confirm whether its IC50 is beneath 300 nM.
Condition not met

Regarding C[C@@H](C(N)=O)N(C)c1ccc2c(c1)OCCn1cc(N3C(=O)OC[C@H]3C(F)F)nc1-2 , kindly confirm whether its IC50 is beneath 300 nM.
Condition not met

Regarding CNC(=O)Nc1ccc2c(c1)C(=O)/C(=C/c1cn(C)c3nccc(-c4ccc(C(=O)N5CCN(CCO)CC5)cc4)c13)O2 , kindly confirm whether its IC50 is beneath 300 nM.
Condition not met

Regarding CCCC(=O)CCC(=O)NCC(=O)N1CCN(Cc2cc3nc(-c4cccc5[nH]ncc45)nc(N4CCOCC4)c3s2)CC1 , kindly confirm whether its IC50 is beneath 300 nM.
Condition not met

Regarding Cn1cc(/C=C2\Oc3ccc(N)cc3C2=O)c2c(-c3ccccc3)ccnc21 , kindly confirm whether its IC50 is beneath 300 nM.
Condition not met

Regarding CN(C)CCOc1ccc(NC(=O)Nc2ccc3c(c2)C(=O)/C(=C/c2cn(C)c4nccc(N5CCC(C(=O)N(C)C)CC5)c24)O3)cc1 , kindly confirm whether its IC50 is beneath 300 nM.
Condition not met

Regarding Cn1cc(/C=C2\Oc3cc(O)cc(O)c3C2=O)c2c(C#Cc3ccccc3)ccnc21 , kindly confirm whether its IC50 is beneath 300 nM.
Condition met

Regarding Cc1nc2ncc(-c3ccc4c(c3)CN(c3nc(CN(C)C)nc5c3CC(C)(C)CC5)CCO4)cc2[nH]1 , kindly confirm whether its IC50 is beneath 300 nM.
Condition not met

Regarding CN(C)CCNC(=O)c1ccc(NC(=O)Nc2ccc(-c3nc(N4CCOCC4)c4ccn(CC(F)(F)F)c4n3)cc2)cc1 , kindly confirm whether its IC50 is beneath 300 nM.
Condition met

---

// molecules with reported IC50 on PIK3CG (human) (UniProt P48736), multi-publication

Requested read-out: IC50. Entry: Cc1nc(NC(=O)CCCN[C@H](C(=O)OC2CCCC2)c2ccccc2)sc1-c1ccc(Cl)c(S(C)(=O)=O)c1
100 to 1000 nM

Requested read-out: IC50. Entry: C[C@H](NC(=O)c1c(N)nn2cccnc12)c1cc2cccc(NCC(F)(F)F)c2c(=O)n1-c1ccccc1
1000 to 10000 nM

Requested read-out: IC50. Entry: O=C(Nc1ccncc1)Nc1ccc(-c2nc(N3CCOCC3)c3ccn(CCN4CCNCC4)c3n2)cc1
36 nM

Requested read-out: IC50. Entry: Cn1cc(/C=C2\Oc3cccc(O)c3C2=O)c2c(-c3cc4ccccc4o3)ccnc21
157 nM

Requested read-out: IC50. Entry: CC(C)(C#N)c1ccc(-c2n[nH]c3cnc4ccc(-c5ccc6ncccc6c5)cc4c23)cc1
10 to 25 nM

Requested read-out: IC50. Entry: Cn1ncc2c(Oc3ccc4[nH]ccc4c3)nc(-c3cccnc3)nc21
428 nM

Requested read-out: IC50. Entry: CC(C)N1CCC(NC(=O)c2nc([C@H](C)Nc3ncnc4scnc34)cc3cccc(Cl)c23)CC1
> 10000 nM

---

// compounds with reported pIC50 on UniProtKB P48736, multi-publication
pIC50: −log10 of the molar value.

Which measured pIC50 belongs to Cn1cc(/C=C2\Oc3cccc(O)c3C2=O)c2c(-c3ccc(S(=O)(=O)N4CCCCC4)cc3)ccnc21 , tested on UniProtKB P48736?
5.92

Which measured pIC50 belongs to Cc1nc([C@H](C)Nc2ncnc3[nH]cnc23)cc2cccc(C(=O)N3CCOCC3)c12 , tested on UniProtKB P48736?
< 5.00

Which measured pIC50 belongs to C[C@H](NC(=O)c1nccnc1N)c1cc2cccc(Cl)c2c(=O)n1-c1ccc(F)cc1 , tested on UniProtKB P48736?
6.00 to 7.00

Which measured pIC50 belongs to Nc1ncc(-c2cccc3nc([C@@H](Nc4ncnc5cccc(F)c45)C4CC4)n(-c4ccccc4)c(=O)c23)cn1 , tested on UniProtKB P48736?
6.35

Which measured pIC50 belongs to C[C@H]1CN(c2cnc3ccc(-c4ccc5oc(N)nc5c4)nc3c2)CCN1 , tested on UniProtKB P48736?
> 6.00

Which measured pIC50 belongs to C[C@H](Nc1ncnc2[nH]cnc12)c1cc2cccc(-c3cccnc3)c2c(Cl)n1 , tested on UniProtKB P48736?
> 6.00

Which measured pIC50 belongs to C[C@H](Nc1ncnc2[nH]cnc12)c1cc2cccc(Cl)c2c(C(=O)N2CCC(F)(F)C2)n1 , tested on UniProtKB P48736?
> 6.00

Which measured pIC50 belongs to Cc1ccccc1-n1c(Cn2nc(I)c3c(N)ncnc32)cc2ccccc2c1=O , tested on UniProtKB P48736?
> 7.00

---

pIC50: −log10 of the molar value.
// molecules with reported pIC50 on PIK3CG (human) (UniProt P48736), multi-publication

molecule=CCNC(=O)Nc1ccc(-c2nc(N3CCOCC3)c3ccn(CCN(C)C)c3n2)cc1 property_measured=pIC50 val=6.27
molecule=COc1ccc(-c2nn(Cc3cc4cccc(C)c4c(=O)n3-c3ccccc3C)c3ncnc(N)c23)cc1OC property_measured=pIC50 val="> 7.00"
molecule=Cc1cccc2cc(Cn3nc(Cl)c4c(N)ncnc43)n(-c3ccccc3F)c(=O)c12 property_measured=pIC50 val="> 5.00"
molecule=CNS(=O)(=O)c1cccc(-c2cnc(N)c(C(=O)N[C@@H](C)c3cc4cccc(Cl)c4c(=O)n3-c3ccccc3)n2)c1 property_measured=pIC50 val="6.00 to 7.00"
molecule=Cc1cn2nccc(N[C@@H](C)c3cc4cccc(Cl)c4c(=O)n3-c3ccccc3)c2n1 property_measured=pIC50 val="5.00 to 6.00"
molecule=C[C@H](NC(=O)c1c(N)nn2cccnc12)c1cc2cccc(-c3ccccc3)c2c(=O)n1-c1ccccc1 property_measured=pIC50 val="6.00 to 7.00"

Which measured pIC50 belongs to C[C@H](Nc1cc(Cl)nn2ccnc12)c1cc2cccc(-c3cnn(C)c3)c2c(=O)n1C1CC1 , tested on PIK3CG (human) (UniProt P48736)?
5.00 to 6.00

Which measured pIC50 belongs to CCOc1ncc(-c2cccc3nc([C@@H](Nc4ncnc5ccc(C#N)cc45)C4CC4)n(-c4ccccc4)c(=O)c23)cn1 , tested on PIK3CG (human) (UniProt P48736)?
6.36

Which measured pIC50 belongs to Cc1ccccc1-n1c(Cn2nc(Br)c3c(N)ncnc32)nc2nccc(C)c2c1=O , tested on PIK3CG (human) (UniProt P48736)?
< 5.00

Which measured pIC50 belongs to C[C@H](Nc1ncnc2[nH]cnc12)c1cc2cccc(-c3cnn(C)c3)c2c(OCCN2CCCC2)n1 , tested on PIK3CG (human) (UniProt P48736)?
> 5.00

Which measured pIC50 belongs to C[C@H](NC(=O)c1c(N)nn2cccnc12)c1c(Br)c2cccc(F)c2c(=O)n1-c1ccccc1 , tested on PIK3CG (human) (UniProt P48736)?
6.00 to 7.00

Which measured pIC50 belongs to Cc1cccnc1-n1c(Cn2nc(-c3ccc(Cl)c(O)c3)c3c(N)ncnc32)cc2cccc(C)c2c1=O , tested on PIK3CG (human) (UniProt P48736)?
> 7.00

Which measured pIC50 belongs to C[C@H](NC(=O)c1nc(-c2cncc(NS(C)(=O)=O)c2)cnc1N)c1cc2cccc(Cl)c2c(=O)n1-c1ccccc1 , tested on PIK3CG (human) (UniProt P48736)?
> 7.00

Which measured pIC50 belongs to Cc1cccc2cc(Cn3nc(-c4ccc5nc(N)sc5c4)c4c(N)ncnc43)n(-c3ccccc3)c(=O)c12 , tested on PIK3CG (human) (UniProt P48736)?
> 7.00

Which measured pIC50 belongs to CC(C)NCCn1ccc2c(N3CCOCC3)nc(-c3ccc(NC(=O)Nc4ccncc4)cc3)nc21 , tested on PIK3CG (human) (UniProt P48736)?
6.61
